Molecular target: Nitric oxide synthase, inducible (Mus musculus, UniProt P29477)
Sequence (P29477 whole entry): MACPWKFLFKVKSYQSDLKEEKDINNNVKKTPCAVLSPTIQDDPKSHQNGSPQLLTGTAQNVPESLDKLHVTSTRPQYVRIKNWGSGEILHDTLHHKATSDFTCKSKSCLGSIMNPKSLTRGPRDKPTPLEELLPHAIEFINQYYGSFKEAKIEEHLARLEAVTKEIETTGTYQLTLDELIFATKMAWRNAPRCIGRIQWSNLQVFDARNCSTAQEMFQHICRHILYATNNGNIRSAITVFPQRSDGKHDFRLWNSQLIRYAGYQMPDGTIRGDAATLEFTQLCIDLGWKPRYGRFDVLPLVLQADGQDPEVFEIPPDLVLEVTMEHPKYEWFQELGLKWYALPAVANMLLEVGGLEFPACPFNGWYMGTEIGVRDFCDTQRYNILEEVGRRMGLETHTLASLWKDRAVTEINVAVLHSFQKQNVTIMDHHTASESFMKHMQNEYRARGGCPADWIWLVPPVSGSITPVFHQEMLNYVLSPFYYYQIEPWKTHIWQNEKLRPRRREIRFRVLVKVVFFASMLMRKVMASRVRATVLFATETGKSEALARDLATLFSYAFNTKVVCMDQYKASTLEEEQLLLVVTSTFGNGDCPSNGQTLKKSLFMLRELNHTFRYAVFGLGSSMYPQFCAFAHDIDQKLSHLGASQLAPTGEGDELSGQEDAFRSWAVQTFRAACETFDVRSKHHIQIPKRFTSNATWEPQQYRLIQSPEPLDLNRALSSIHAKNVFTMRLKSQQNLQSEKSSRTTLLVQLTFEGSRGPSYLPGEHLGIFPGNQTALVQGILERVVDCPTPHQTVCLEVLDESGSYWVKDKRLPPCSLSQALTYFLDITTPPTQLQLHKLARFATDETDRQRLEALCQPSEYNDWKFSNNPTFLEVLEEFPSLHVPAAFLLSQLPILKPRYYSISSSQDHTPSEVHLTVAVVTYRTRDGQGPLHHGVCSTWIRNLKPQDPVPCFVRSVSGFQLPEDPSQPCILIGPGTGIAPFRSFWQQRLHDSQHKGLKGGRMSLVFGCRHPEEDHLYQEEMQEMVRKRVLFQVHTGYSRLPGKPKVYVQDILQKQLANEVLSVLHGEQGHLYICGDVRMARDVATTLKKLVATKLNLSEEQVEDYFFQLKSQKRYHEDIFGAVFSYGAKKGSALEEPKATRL
Test: Inhibition of mouse iNOS expressed in HEK293 cells assessed as NO production in by transient transfection assay
attribute.measured: pEC50
# log scale: pEC50 equals minus log10 of the concentration in mol/L

In the examples that follow, each entry is paired with its recorded pEC50.
>  <smiles.input>
Cc1ncsc1C(=O)N(Cc1c[n+]([O-])cc2c(F)cccc12)c1cccc(Cl)c1

>  <readout.number>
6.18

$$$$
>  <smiles.input>
Cc1ncsc1C(=O)N(Cc1cc(=O)[nH]c2c(F)cccc12)c1cccc(Cl)c1

>  <readout.number>
6.92

$$$$
>  <smiles.input>
Cn1cncc1C(=O)N(Cc1cc(=O)[nH]c2c(F)c(F)ccc12)c1cccc(Cl)c1

>  <readout.number>
7.85

$$$$

Then this molecule:
Query pEC50 on Nitric oxide synthase, inducible (Mus musculus, UniProt P29477) for `Cc1ncsc1C(=O)N(Cc1cc(=O)[nH]c2c(F)c(F)ccc12)c1cccc(Cl)c1` 7.49
